SYSTEM_TESTED: Prostaglandin E2 receptor EP2 subtype (Homo sapiens) (UniProt P43116)
Sequence (P43116 whole entry, looked up): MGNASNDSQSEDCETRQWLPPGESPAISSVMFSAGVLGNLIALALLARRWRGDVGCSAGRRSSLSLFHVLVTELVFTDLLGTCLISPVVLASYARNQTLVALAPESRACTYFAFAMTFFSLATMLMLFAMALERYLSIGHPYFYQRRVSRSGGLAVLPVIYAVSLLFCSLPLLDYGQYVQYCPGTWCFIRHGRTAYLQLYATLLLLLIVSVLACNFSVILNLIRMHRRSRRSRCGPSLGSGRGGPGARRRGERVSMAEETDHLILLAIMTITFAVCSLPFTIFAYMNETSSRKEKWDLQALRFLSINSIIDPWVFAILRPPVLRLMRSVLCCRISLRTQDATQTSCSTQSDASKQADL
MEASUREMENT_DESCRIPTION: EP2 receptor modulators, dose response, cell-based, human EP2, PGE2 EC50 shift (AID 1421)
CONDITION_DESCRIPTION: EP2-expressing cells, PGE2 EC50 shift by compound; measured here: PGE2 EC50 at 6.7 uM compound
Label scheme, based on PGE2 EC50 with compound: 0: < 0.8 nM; 1: ≥ 0.8 nM and < 1 nM; 2: ≥ 1 nM

[Q] Given COC(=O)c1nc(NC(=O)C(C)(C)C)n[nH]1 , name the class its PGE2 EC50 with compound places it in.
[A] 2

[Q] Into which category would you place C=C1CCC2C(CC2(C)C)C(=C)CC/C1=N/O (stereo unspecified) ?
[A] 2

[Q] // return the class label for CCOP(=O)(OCC)c1nc(-c2cccc3ccccc23)oc1N1CCCCC1
[A] 2

[Q] Please indicate the class for O=C(Nc1cccc(Cl)c1N1CCCCC1)c1ccc2c(c1)OCCO2 based on its PGE2 EC50 with compound.
[A] 0

[Q] Band of Cc1ccc(OCc2n[nH]c(=S)n2Cc2ccccc2)cc1 ?
[A] 2

[Q] Which band does CCCCC(=O)C1CCN(Cc2ccccc2)CC1 fall in?
[A] 1

[Q] Textbook exercise: identify the category of the compound given here, COCCn1c(SC(C(=O)Nc2cc(C)ccc2OC)c2ccccc2)nnc1-c1ccc(Cl)cc1 (stereo unspecified) , according to its measured value.
[A] 2

[Q] Hi there! Could you help me figure out the category for Cc1ccc(C2CC(c3cccs3)=NN2C(=O)c2ccc(Br)o2)cc1 (stereo unspecified) please?
[A] 0

[Q] Given Cc1ccc(S(=O)(=O)c2c(C)nn(-c3ccccc3)c2OC(=O)c2ccco2)cc1 , name the class its PGE2 EC50 with compound places it in.
[A] 0

[Q] Hey, which category is O=C(Nc1ccccc1N1CCCCC1)c1cccc(F)c1 in, do you know?
[A] 1
